Values from patent US20240158418A1

TARGET DESC: EGFR L858R-T790M (Homo sapiens, UniProt P00533, L858R/T790M)
Construct: NCI-H1975 (harboring EGFR heterozygous L858R-T790M mutations); host or cells: NCI-H1975
Sequence (P00533 25-1210 T790M/L858R): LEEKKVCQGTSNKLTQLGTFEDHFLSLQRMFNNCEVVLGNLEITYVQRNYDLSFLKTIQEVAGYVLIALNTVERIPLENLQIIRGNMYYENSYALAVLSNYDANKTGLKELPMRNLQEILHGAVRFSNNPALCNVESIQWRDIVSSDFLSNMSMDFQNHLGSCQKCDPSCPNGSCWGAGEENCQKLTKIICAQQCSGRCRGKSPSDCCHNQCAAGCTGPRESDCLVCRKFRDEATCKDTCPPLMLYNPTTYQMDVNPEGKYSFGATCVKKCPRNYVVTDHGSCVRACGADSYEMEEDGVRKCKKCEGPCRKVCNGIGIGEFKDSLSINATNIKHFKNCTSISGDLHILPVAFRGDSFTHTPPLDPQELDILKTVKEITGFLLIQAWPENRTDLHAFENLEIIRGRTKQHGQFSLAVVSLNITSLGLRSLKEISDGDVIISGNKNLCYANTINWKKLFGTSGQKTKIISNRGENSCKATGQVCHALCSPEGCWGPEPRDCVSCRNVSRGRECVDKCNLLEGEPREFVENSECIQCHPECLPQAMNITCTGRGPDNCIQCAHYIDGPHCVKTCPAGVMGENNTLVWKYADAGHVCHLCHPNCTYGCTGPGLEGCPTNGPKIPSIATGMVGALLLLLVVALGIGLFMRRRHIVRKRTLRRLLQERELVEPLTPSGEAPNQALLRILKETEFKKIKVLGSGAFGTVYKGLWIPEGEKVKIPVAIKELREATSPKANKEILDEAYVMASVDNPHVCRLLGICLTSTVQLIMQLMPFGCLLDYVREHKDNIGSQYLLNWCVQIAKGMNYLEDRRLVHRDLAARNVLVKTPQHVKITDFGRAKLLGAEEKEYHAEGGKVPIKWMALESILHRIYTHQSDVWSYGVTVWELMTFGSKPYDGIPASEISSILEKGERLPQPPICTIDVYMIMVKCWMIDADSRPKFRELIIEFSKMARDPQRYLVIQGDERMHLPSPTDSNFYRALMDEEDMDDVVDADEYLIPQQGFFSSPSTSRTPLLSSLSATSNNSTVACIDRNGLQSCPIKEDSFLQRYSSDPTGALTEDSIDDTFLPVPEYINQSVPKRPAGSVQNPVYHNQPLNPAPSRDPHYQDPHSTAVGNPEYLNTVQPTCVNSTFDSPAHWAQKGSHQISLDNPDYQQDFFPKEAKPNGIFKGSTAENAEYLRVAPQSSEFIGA
MEASUREMENT DESCRIPTION: EGFR degradation, Total EGFR (L858R-specific) HTRF, NCI-H1975
Assay type: cell-based
CONDITION LABEL: Table 9A; NCI-H1975 cells, 6 hours, Total EGFR HTRF; read-out: H1975 EGFR DC50
PROPERTY LABEL: DC50

Ask: What is its DC50 for EGFR L858R-T790M (Homo sapiens, UniProt P00533, L858R/T790M)? Entry: O=C1CC[C@H](Nc2ccc(C3CCN(CC(=O)N4CCN(c5ccc(-c6cc(F)c7c(c6)C(=O)N(C(C(=O)Nc6nccs6)c6ncn8c6C[C@@H](F)C8)C7)cc5)CC4)CC3)c(F)c2)C(=O)N1 (stereo partly shown)
Reply: < 50 nM

Ask: And what about the compound O=C1CCC(Nc2cccc(C3CCN(CC(=O)N4CCN(c5ccc(-c6cc(F)c7c(c6)C(=O)N(C(C(=O)Nc6nccs6)c6ncn8c6CCC8)C7)cc5)CC4)CC3)c2)C(=O)N1 (stereo not shown) ?
Reply: 50 to 150 nM

Ask: Next up: O=C1CCC(Nc2ccc(C3CCN(CC(=O)N4CCN(c5ccc(-c6cc(F)c7cn(C(C(=O)Nc8nccs8)c8ncn9c8CCC9)nc7c6)cn5)CC4)CC3)c(F)c2)C(=O)N1 (stereo not shown)
Reply: 50 to 150 nM

Ask: Follow-up entry: O=C1CCC(Nc2ccc(C3CCN(CC(=O)N4CC5(C4)CN(c4ccc(-c6cc(F)c7c(c6)C(=O)N(C(C(=O)Nc6nccs6)c6ncn8c6CCC8)C7)cc4)C5)CC3(F)F)cc2)C(=O)N1 (single isomer, unassigned)
Reply: < 50 nM

Ask: Here is the next compound: O=C1CC[C@H](Nc2ccc(C3CCN(CC(=O)N4CCC(c5ccc(-c6cc(F)c7c(c6)C(=O)N(C(C(=O)Nc6nccs6)c6ncn8c6CCC8)C7)cc5)CC4)CC3)c(F)c2)C(=O)N1 (stereo partly shown)
Reply: 50 to 150 nM

Ask: Param item: O=C1CC[C@H](Nc2ccc(C3CCN(C(=O)CN4CCN(Cc5ccc(-c6cc(F)c7c(c6)C(=O)N(C(C(=O)Nc6nccs6)c6ncn8c6CCC8)C7)cc5)CC4)CC3)c(F)c2)C(=O)N1 (stereo partly shown)
Reply: < 50 nM

Ask: Try this compound too: O=C1CC[C@H](Nc2ccc(N3CCC(O)(CC(=O)N4CCC5(CC4)CN(c4ccc(-c6cc(F)c7c(c6)C(=O)N(C(C(=O)Nc6nccs6)c6ncn8c6CCC8)C7)cc4)C5)CC3)c(F)c2)C(=O)N1 (stereo partly shown)
Reply: < 50 nM

Ask: What would you report for O=C1CCC(Nc2ccc(C3CCN(CC(=O)N4CCN(Cc5ccc(-c6cc(F)c7c(c6)C(=O)N(C(C(=O)Nc6nccs6)c6ncn8c6CCC8)C7)cc5)CC4)CC3)c(F)c2)C(=O)N1 (stereo not shown) ?
Reply: < 50 nM

Ask: Would you mind doing O=C1CC[C@H](Nc2ccc(C3CCN(CC(=O)N4CCN(c5ccc(-c6cc(F)c7c(c6)C(=O)N(C(C(=O)Nc6nccs6)c6ncn8c6CCC8)C7)cn5)CC4)CC3)c(F)c2)C(=O)N1 (stereo partly shown) as well?
Reply: < 50 nM

Ask: Follow-up entry: N#Cc1cc(NC2CCC(=O)NC2=O)ccc1C1CCN(CC(=O)N2CCN(c3ccc(-c4cc(F)c5c(c4)C(=O)N(C(C(=O)Nc4nccs4)c4ncn6c4CCC6)C5)cc3)CC2)CC1 (stereo not shown)
Reply: < 50 nM
